# Measurement Notes: Inhibition of TEL fused Src-mediated proliferation of TEL-Src transformed mouse BA/F3 cells after 48 hrs by bright-glo luciferase assay
pIC50: −log10 of the molar value.
Experimental Readout: pIC50

INSERT INTO measurements (structure, observed_measurement) VALUES
  ('Cc1cccc(Cl)c1Nc1nc2ccccc2n1-c1cc(Nc2ccc(CCN3CCOCC3)cn2)ncn1', 6.83),
  ('Cc1nc(Nc2cc(-n3c(Nc4c(C)cccc4Cl)nc4ccccc43)ncn2)cc(N2CCN(CCO)CC2)n1', 8.30);

----------
# Measurement Notes: Inhibition of TEL fused Lck-mediated proliferation of TEL-Lck transformed mouse BA/F3 cells after 48 hrs by bright-glo luciferase assay
Each record here notes measured IC50.
Experimental Readout: IC50 (nM)

INSERT INTO results (structure, unit_name, qual, observed_measurement) VALUES
  ('Cc1cccc(Cl)c1Nc1nc2ccccc2n1-c1cc(Nc2ncnc(NCCN3CCOCC3)c2C)ncn1', 'nM', '=', 359),
  ('Cc1cc(C)c(Nc2nc3ccccc3n2-c2cc(N)ncn2)c(C)c1', 'nM', '=', 583),
  ('Cc1cccc(Cl)c1Nc1nc2ccccc2n1-c1cc(Cl)ncn1', 'nM', '=', 5700),
  ('Cc1cccc(Cl)c1Nc1nc2ccccc2n1-c1cc(N2CCOCC2)ncn1', 'nM', '>', 10000),
  ('CCN(CC)CCCCNc1cc(-n2c(Nc3c(C)cccc3Cl)nc3ccccc32)ncn1', 'nM', '=', 5040),
  ('Cc1cccc(Cl)c1Nc1nc2ccccc2n1-c1cc(Nc2cc(CN3CCOCC3)ccn2)ncn1', 'nM', '=', 17),
  ('Cc1cc(C)c(Nc2nc3ccccc3n2-c2cc(N)ncn2)c(Br)c1', 'nM', '=', 1170),
  ('Cc1cccc(Cl)c1Nc1nc2ccccc2n1-c1cc(NN2CCOCC2)ncn1', 'nM', '>', 10000);
